assay-details: Clinical chemistries in serum of rats
Format: in vivo, male Sprague-Dawley rats
run-parameters: Rattus norvegicus, po, 96 h, read-out: CHOL (total cholesterol), percent of control
quantity-measured: response vs control in vivo at 0.3 % (%)
Response body: numeric value in %, unit text excluded.

Look up and report measured response vs control in vivo at 0.3 % for this entry: CC(C)(C)c1cc(OC[Si](C)(C)c2ccc(C(F)(F)F)cc2)cc(C(C)(C)C)c1O [MDL 105,975] 122

Look up and report measured response vs control in vivo at 0.3 % for this entry: CC(=O)Oc1c(C)cc(OC[Si](C)(C)c2ccccc2)c(C)c1C [MDL 103,157] 112

Look up and report measured response vs control in vivo at 0.3 % for this entry: CC(C)(C)c1cc(OC[Si](C)(C)c2cccc(C(F)(F)F)c2)cc(C(C)(C)C)c1O [MDL 105,726] 104

Look up and report measured response vs control in vivo at 0.3 % for this entry: CC(C)(C)c1cc(SC[Si](C)(C)c2ccccc2)cc(C(C)(C)C)c1OC(=O)CCC(=O)O [MDL 103,141] 119

Look up and report measured response vs control in vivo at 0.3 % for this entry: Cc1cc(OC[Si](C)(C)c2ccccc2)c(C)c(C)c1O [MDL 105,314] 110

Look up and report measured response vs control in vivo at 0.3 % for this entry: CC(C)(C)c1cc(OC[Si](C)(C)c2ccccc2)cc(C(C)(C)C)c1OC(=O)CCC(=O)O [MDL 103,076] 114

Look up and report measured response vs control in vivo at 0.3 % for this entry: CC(C)(C)c1cc(OC[Si](C)(C)c2ccccc2)ccc1OC(=O)CCC(=O)O [MDL 104,399] 130

Look up and report measured response vs control in vivo at 0.3 % for this entry: CC(=O)Oc1cc(C(C)(C)C)c(OC[Si](C)(C)c2ccccc2)cc1C(C)(C)C [MDL 106,290] 153

Look up and report measured response vs control in vivo at 0.3 % for this entry: CC(C)(C)c1cc(SC[Si](C)(C)c2ccccc2)ccc1O [MDL 104,571] 108
